# systemUnderTest: estrogen receptor (Homo sapiens)
# Construct: Scatchard analysis on sectioned hypothalamic tissue and MCF7 cells using this protocol; endogenous in cells
# Sequence (P03372 whole entry): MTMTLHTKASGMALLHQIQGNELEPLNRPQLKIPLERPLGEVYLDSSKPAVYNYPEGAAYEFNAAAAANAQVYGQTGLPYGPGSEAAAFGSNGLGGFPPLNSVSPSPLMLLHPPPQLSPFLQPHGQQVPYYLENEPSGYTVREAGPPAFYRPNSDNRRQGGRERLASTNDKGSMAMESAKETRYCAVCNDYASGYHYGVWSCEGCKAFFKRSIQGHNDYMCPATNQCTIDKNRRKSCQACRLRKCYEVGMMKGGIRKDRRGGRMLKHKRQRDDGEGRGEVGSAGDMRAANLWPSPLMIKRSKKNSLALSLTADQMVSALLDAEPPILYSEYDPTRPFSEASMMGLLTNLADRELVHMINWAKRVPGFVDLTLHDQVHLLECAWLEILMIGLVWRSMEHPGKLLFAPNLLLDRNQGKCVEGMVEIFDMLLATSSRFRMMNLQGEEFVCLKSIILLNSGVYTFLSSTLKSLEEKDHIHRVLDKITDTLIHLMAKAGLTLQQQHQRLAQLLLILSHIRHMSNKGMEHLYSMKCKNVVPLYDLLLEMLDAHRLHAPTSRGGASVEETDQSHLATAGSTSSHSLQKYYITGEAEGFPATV
# experimentDescription: Scatchard analysis of [3H]-moxestrol binding, MCF7 cells
# particulars: read-out: Dissociation constant (Kd)
pKd: −log10 of the molar value.
propertyName: pKd

Problem: Requested field: pKd. Item: C#C[C@]1(O)CC[C@H]2[C@@H]3CCc4cc(O)ccc4[C@H]3[C@@H](OC)C[C@@]21C [[^3 H]-moxestrol, 11β-methoxy-[^3 H]-moxestrol]
Solution: 9.11 to 9.15

Sourced from patent US5990078A
